test: Plate binding of FITC-labelled heparin to immobilised biotinylated peptides; conditions: 400 ng peptide/well, 1 ug FITC-heparin, PBS; normalized to immX3 peptide binding = 100
reported-metric: Heparin binding (fluorescence counts)

1. RKGFYKRKQCKPSRGRKRGICWAVD [immX5AVD]
2. RNGNFHPKQCHPALDGQRGKCWAVD [immX4AVD]
Returns: the label, 1 or 2 , whose recorded Heparin binding (fluorescence counts) is the lower number. Lab log: write the label of the selected item as the result.
2

###

test: Plate binding of FITC-labelled hyaluronic acid to immobilised biotinylated peptides; settings: 400 ng peptide/well, 1 ug FITC-HMW-HA, PBS; normalized to immX3 peptide binding = 100
Square brackets hold non-standard residues; d marks the D form. Ends that are not written are not given here.
reported-metric: Hyaluronate binding (fluorescence counts)

Past entries and their recorded results:
substance	endpoint-value
KKGFYKKKQCRPSKGRKRGFCW(dA)(dV)(dD) (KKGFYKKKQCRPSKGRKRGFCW[dA][dV][dD]; cysteine pairing not given here) [immX3dAdVdD]	104.2
RKGFYKRKQCKPSRGRKRGICWAVD [immX5AVD]	113.9

I. SLNPEWNETKGFYKKKQCRPSKGRKRGFCW(dA)(dV)(dD) (SLNPEWNETKGFYKKKQCRPSKGRKRGFCW[dA][dV][dD]; cysteine pairing not given here) [immX3K1dAdVdD]
II. RNGNFHPKQCHPALDGQRGKCWAVD [immX4AVD]
Between these two entries, I and II , state which has the higher Hyaluronate binding (fluorescence counts). Answer = label.
I

// provenance: patent US20240034761A1
